# experimental_system: NR1wt/NR2B-(2A NTD+L) receptors
# procedure_text: Zinc sensitivity
property_measured: pIC50
API: returns pIC50 as number; meaning -log10 of concentration in mol/L.

Item under review: [Zn+2] [Zinc, zinc] . Reported pIC50?
8.27

---

# experimental_system: NR1wt/NR2Dwt receptors (Rattus norvegicus, UniProt P35439+Q62645)
# Sequence (Q62645 28-1323, other chains not shown): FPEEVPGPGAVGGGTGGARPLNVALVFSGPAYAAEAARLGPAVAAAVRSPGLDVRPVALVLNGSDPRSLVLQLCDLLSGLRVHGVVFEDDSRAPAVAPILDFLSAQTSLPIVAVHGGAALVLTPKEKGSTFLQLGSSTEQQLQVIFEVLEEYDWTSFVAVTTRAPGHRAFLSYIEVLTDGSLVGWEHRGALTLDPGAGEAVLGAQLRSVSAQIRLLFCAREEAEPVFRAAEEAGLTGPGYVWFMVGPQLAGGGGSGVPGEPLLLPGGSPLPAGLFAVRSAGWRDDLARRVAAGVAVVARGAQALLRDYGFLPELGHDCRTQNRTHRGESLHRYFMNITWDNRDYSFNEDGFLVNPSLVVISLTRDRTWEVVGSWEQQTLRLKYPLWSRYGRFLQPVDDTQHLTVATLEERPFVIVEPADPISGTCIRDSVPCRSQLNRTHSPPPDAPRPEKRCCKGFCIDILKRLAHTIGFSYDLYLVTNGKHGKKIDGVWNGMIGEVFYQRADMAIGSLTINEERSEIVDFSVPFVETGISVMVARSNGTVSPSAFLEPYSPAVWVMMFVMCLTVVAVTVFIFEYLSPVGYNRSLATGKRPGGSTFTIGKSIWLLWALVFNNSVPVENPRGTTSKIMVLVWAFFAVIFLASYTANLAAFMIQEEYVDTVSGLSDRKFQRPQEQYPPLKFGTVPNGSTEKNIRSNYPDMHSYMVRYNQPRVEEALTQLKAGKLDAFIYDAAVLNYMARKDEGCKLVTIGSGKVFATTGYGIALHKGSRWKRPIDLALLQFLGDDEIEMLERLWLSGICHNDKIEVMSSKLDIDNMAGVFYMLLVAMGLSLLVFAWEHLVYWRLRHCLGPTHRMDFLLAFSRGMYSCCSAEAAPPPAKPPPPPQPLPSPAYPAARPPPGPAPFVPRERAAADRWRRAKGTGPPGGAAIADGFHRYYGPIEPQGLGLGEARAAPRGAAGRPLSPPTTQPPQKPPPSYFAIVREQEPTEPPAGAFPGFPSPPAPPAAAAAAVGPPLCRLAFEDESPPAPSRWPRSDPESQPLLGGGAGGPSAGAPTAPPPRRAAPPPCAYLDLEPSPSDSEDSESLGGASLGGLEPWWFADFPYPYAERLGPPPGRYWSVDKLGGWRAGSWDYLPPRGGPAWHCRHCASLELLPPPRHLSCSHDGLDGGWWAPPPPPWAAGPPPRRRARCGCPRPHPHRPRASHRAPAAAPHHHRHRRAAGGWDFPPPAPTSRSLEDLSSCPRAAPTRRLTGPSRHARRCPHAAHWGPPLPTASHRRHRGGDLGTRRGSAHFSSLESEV
# procedure_text: Zinc sensitivity
# Type: cell-based
property_measured: pIC50
API: returns pIC50 as number; meaning -log10 of concentration in mol/L.

Item under review: [Zn+2] . Reported pIC50?
5.11
